System: Enterococcus faecalis
procedure-details: Antibiotic activity against vancomycin resistant Enterococcus faecalis NJ3 assessed as inhibition of bacterial growth incubated for 16 hrs by microtiter broth dilution method
Type: functional
assay-readout: MIC (µg/mL)

>>> reported_value("CCCCCCc1c(O)c(Cl)cc2c1OC1(C2=O)C(Cl)=C(Cl)C(=O)N1Cc1ccc(C(F)(F)F)cc1 (stereo not given)")
2
>>> reported_value("CCCCCCc1c(O)c(Cl)cc2c1OC1(C2=O)C(Cl)=C(Cl)C(=O)N1Cc1ccccc1 (stereo not given)")
2
>>> reported_value("CCCCCCN1C(=O)C(Cl)=C(Cl)C12Oc1c(cc(Cl)c(O)c1C)C2=O (stereo not given)")
8
>>> reported_value("CCCCCCc1c(O)c(Cl)cc2c1OC1(C2=O)C(Cl)=C(Cl)C(=O)N1CCc1ccccc1 (stereo not given)")
1

----------
The entries below come with measured MEC values attached.
System: Staphylococcus aureus
procedure-details: Inhibition of ClpX/ClpP activity in methicillin-resistant Staphylococcus aureus USA300 assessed as increase in urease activation incubated of overnight by phenol red dye based microplate reader analysis
assay-readout: MEC

>>> reported_value("CCCCCCc1c(O)c(Cl)cc2c1OC1(C2=O)C(Cl)=C(Cl)C(=O)N1CCc1ccccc1 (configuration not stated)")
"0.25 µg/mL"
>>> reported_value("CCCCCCc1c(O)c(Cl)cc2c1OC1(C2=O)C(Cl)=C(Cl)C(=O)N1Cc1ccccc1 (configuration not stated)")
"0.25 µg/mL"
>>> reported_value("CCCCCCc1c(O)c(Cl)cc2c1OC1(C2=O)C(Cl)=C(Cl)C(=O)N1C (configuration not stated)")
"1 µg/mL"
>>> reported_value("CCCCCCc1c(O)c(Cl)cc2c1OC1(C2=O)C(Cl)=C(Cl)C(=O)N1Cc1ccc(C(F)(F)F)cc1 (configuration not stated)")
"1 µg/mL"
>>> reported_value("CCCCCCc1c(O)c(Cl)cc2c1OC1(C2=O)C(Cl)=C(Cl)C(=O)N1Cc1ccc(C)cc1 (configuration not stated)")
"0.25 µg/mL"
>>> reported_value("CCCCCCCCCCCCN1C(=O)C(Cl)=C(Cl)C12Oc1c(cc(Cl)c(O)c1C)C2=O (configuration not stated)")
"0.5 µg/mL"
>>> reported_value("CCCCCCc1c(O)c(Cl)cc2c1OC1(C2=O)C(Cl)=C(Cl)C(=O)N1CCCCCC (configuration not stated)")
"0.067 µg/mL"

----------
System: Enterococcus faecalis
procedure-details: Antibiotic activity against vancomycin resistant Enterococcus faecalis NJ3 assessed as inhibition of bacterial growth incubated for 16 hrs by microtiter broth dilution method
Assay type: functional
Threshold-based label: MIC under 8 µg/mL gives true (1), MIC not under 8 µg/mL gives false (0).

>>> assigned_category("Cc1c(O)c(Cl)cc2c1OC1(C2=O)C(Cl)=C(Cl)C(=O)N1C (centres undefined)")
"false (0)"
>>> assigned_category("C=CCN1C(=O)C(Cl)=C(Cl)C12Oc1c(cc(Cl)c(O)c1C)C2=O (centres undefined)")
"false (0)"
>>> assigned_category("CCCCCCc1c(O)c(Cl)cc2c1OC1(C2=O)C(Cl)=C(Cl)C(=O)N1Cc1ccc(C)cc1 (centres undefined)")
"true (1)"
>>> assigned_category("CCCCCCCCCCCCN1C(=O)C(Cl)=C(Cl)C12Oc1c(cc(Cl)c(O)c1C)C2=O (centres undefined)")
"true (1)"
>>> assigned_category("CCCCCCc1c(O)c(Cl)cc2c1OC1(C2=O)C(Cl)=C(Cl)C(=O)N1CCCCCC (centres undefined)")
"true (1)"
>>> assigned_category("Cc1c(O)c(Cl)cc2c1OC1(C2=O)C(Cl)=C(Cl)C(=O)N1Cc1ccc(C(F)(F)F)cc1 (centres undefined)")
"false (0)"
